- System: A. baumannii R674
- method_description: Chequerboard combination efficacy of adjuvant with antibiotics
- Format: cell-based
- assay_conditions: antibiotic Tetracycline
reported_property: Potentiation factor

molecule	reported_property	result
NCCCN(CCCN)C(=O)CC(c1ccccc1)c1ccccc1.O=C(O)C(F)(F)F.O=C(O)C(F)(F)F	Potentiation factor	4
NCCCC[C@H](N)C(=O)NCCCCCCN(CCCCCCNC(=O)[C@@H](N)CCCCN)CC(=O)NC1C2CC3CC(C2)CC1C3 (stereo partly drawn)	Potentiation factor	64
NCCCC[C@H](N)C(=O)NCCCCCCN(CCCCCCNC(=O)[C@@H](N)CCCCN)C(=O)CC(c1ccccc1)c1ccccc1	Potentiation factor	8
NCCCC[C@H](N)C(=O)NCCCN(CCCNC(=O)[C@@H](N)CCCCN)C(=O)Cc1cccc2ccccc12	Potentiation factor	4
NCCCCCCN(CCCCCCN)C(=O)CC(c1ccccc1)c1ccccc1.O=C(O)C(F)(F)F.O=C(O)C(F)(F)F	Potentiation factor	2
NCCCCCCN(CCCCCCN)C(=O)Cc1cccc2ccccc12	Potentiation factor	8
NCCCN(CCCN)C(=O)Cc1cccc2ccccc12.O=C(O)C(F)(F)F.O=C(O)C(F)(F)F	Potentiation factor	2
NCCCN(CCCN)C(=O)Cc1ccccc1.O=C(O)C(F)(F)F.O=C(O)C(F)(F)F	Potentiation factor	2
NCCCC[C@H](N)C(=O)NCCCN(CCCNC(=O)[C@@H](N)CCCCN)C(=O)CC(c1ccccc1)c1ccccc1	Potentiation factor	<2
NCCCCCCN(CCCCCCN)CC(=O)NC1C2CC3CC(C2)CC1C3.O=C(O)C(F)(F)F.O=C(O)C(F)(F)F.O=C(O)C(F)(F)F (stereo not drawn)	Potentiation factor	8
CC(C)(C)OC(=O)NC(Cc1c[nH]c2ccccc12)C(=O)N(CCCN)CCCN.O=C(O)C(F)(F)F.O=C(O)C(F)(F)F.O=C(O)C(F)(F)F (stereo not drawn)	Potentiation factor	<2
NCCCN(CCCN)C(=O)c1ccc(-c2ccccc2)cc1.O=C(O)C(F)(F)F.O=C(O)C(F)(F)F	Potentiation factor	<2
NCCCC[C@H](N)C(=O)NCCCN(CCCNC(=O)[C@@H](N)CCCCN)CC(=O)NC1C2CC3CC(C2)CC1C3.O=C(O)C(F)(F)F.O=C(O)C(F)(F)F.O=C(O)C(F)(F)F.O=C(O)C(F)(F)F.O=C(O)C(F)(F)F (stereo partly drawn)	Potentiation factor	8
NCCCN(CCCN)CC(=O)NC1C2CC3CC(C2)CC1C3.O=C(O)C(F)(F)F.O=C(O)C(F)(F)F.O=C(O)C(F)(F)F (stereo not drawn)	Potentiation factor	<2
NCCCC[C@H](N)C(=O)NCCCCCCN(CCCCCCNC(=O)[C@@H](N)CCCCN)C(=O)Cc1cccc2ccccc12	Potentiation factor	8
